- protocol.details: qHTS assay for identifying genotoxic compounds that show differential cytotoxicity against isogenic chicken DT40 cell lines with known DNA damage response pathways - wild type cell line (AID 743012); further: nearly all actives have a fitted effect of over 60% in size
- measurement.setup: DT40 wild type chicken cells viability, CellTiter-Glo, 40 h; series mostly up to 68.4 µM
Inconclusive results are not listed. The source made the active and inactive calls. The call rests on the fitted dose curve; in most records, active means well fitted cell-killing curve with a large enough effect in the repeat runs; inconclusive means weak or mixed curves, or effect the other way; inactive means no such curve, though single readings can be large or run the other way.
Allowed answers: active, inactive

INPUT: Please let me know the test result on file for `[O-]/[N+](=N\O)c1ccccc1` .
OUTPUT: inactive

INPUT: Which outcome was entered for the molecule `Nc1ccc2c(O)cc(S(=O)(=O)O)cc2c1` in this test?
OUTPUT: inactive

INPUT: Check the results log: what was the call for `CC(C)[N+](C)(CCOC(=O)C1c2ccccc2Oc2ccccc21)C(C)C` ?
OUTPUT: inactive

INPUT: Tell me the assay call for `CC(=O)Nc1ccc2c(c1)Cc1cc(NC(C)=O)ccc1-2` please.
OUTPUT: inactive

INPUT: What outcome does the record of this test show for `CCCOCCO` ?
OUTPUT: inactive
